- testContext: in isopropanol, 318.35 K
parameterMeasured: solubility (mole fraction)

1) COC(=O)c1nc[nH]n1    0.00693

* * *

- testContext: in isopropanol, 292.75 K
parameterMeasured: solubility (mole fraction)

1) COC(=O)c1nc[nH]n1    0.00188

* * *

- testContext: in methanol, 288.05 K
parameterMeasured: solubility (mole fraction)

1) COC(=O)c1nc[nH]n1    0.00385

* * *

- testContext: in cyclopentanone, 303.05 K
parameterMeasured: solubility (mole fraction)

1. COC(=O)c1nc[nH]n1    0.00356

* * *

- testContext: in cyclohexanone, 307.35 K
parameterMeasured: solubility (mole fraction)

1. COC(=O)c1nc[nH]n1    0.00814
